Test system: PfAP2-I AP2 domain 3 (GST-tagged)
Assay: gcPBM binding intensity (ln(normalized median fluorescence intensity)); higher = stronger DNA binding
Whole data set: some 25,000 sequences, median “ln(normalized median fluorescence intensity)” near 7.9, cut for the highest 2% near 11. This is one part of a sample in which the highest values are shown more often than they occur.
Assign class by gcPBM binding intensity (ln): not lower than 8 means y; lower than 8 means n.

Please review the following examples before continuing.
INSERT INTO assay_data (item_sequence, experimental_target, label) VALUES
  ('AAAAAAAAAAAAAAGGTGCATACTTTGAATTAATAT [GTGCAC_site9401]', 'PfAP2-I AP2 domain 3 (GST-tagged)', 'y'),
  ('ACATACTCAAATAGCACACACATAAATAAAAATGTA [CACACA_site3864]', 'PfAP2-I AP2 domain 3 (GST-tagged)', 'y'),
  ('ATTTTATATACAAAATGTACATATTTATTATATATG [XGTACX_site6732]', 'PfAP2-I AP2 domain 3 (GST-tagged)', 'n'),
  ('ATATAAAATACATGGGTGCAATATATTAAACAAATA [GTGCAC_site9421]', 'PfAP2-I AP2 domain 3 (GST-tagged)', 'y'),
  ('ACTTATATTATAAATTGTACAAATATTATATTTGGT [XGTACX_site1424]', 'PfAP2-I AP2 domain 3 (GST-tagged)', 'n');

Reported gcPBM binding intensity (ln) reaches at least 8 for TAAAGGAAATAAAAAACATGCAAATATGAAATATAT [TGCATGCA_site745] ?
n

Reported gcPBM binding intensity (ln) reaches at least 8 for CATATATATTTTATATGTACATATATATTTTATATA [XGTACX_site8665] ?
n

Reported gcPBM binding intensity (ln) reaches at least 8 for CAATATATTATATGGGTGCAAACCACATATAAATAA ?
y

----------
Test system: PfAP2-I AP2 domain 3 (GST-tagged)
Test: gcPBM binding intensity (ln(normalized median fluorescence intensity)); higher = stronger DNA binding
The full ranking holds about 25,000 sequences; the median of “ln(normalized median fluorescence intensity)” is about 7.9, and the highest 2% start at about 11. The entries come from a sample that favours the highest values as a whole.
Assign class by gcPBM binding intensity (ln): not lower than 10 means Y; lower than 10 means N.

Please review the following examples before continuing.
INSERT INTO measurements (item_sequence, experimental_target, label) VALUES
  ('TTTTTTATTATATAATTGTATATAAAATTATAATTT [GTGCAC_negctrl_site733]', 'PfAP2-I AP2 domain 3 (GST-tagged)', 'N'),
  ('AGTGACACCAAAGGGGTGCAATGAAATTAAAAATAT', 'PfAP2-I AP2 domain 3 (GST-tagged)', 'Y'),
  ('TATAAAAATAAGCACACACACAAATATATATTTATT [CACACA_site922]', 'PfAP2-I AP2 domain 3 (GST-tagged)', 'N'),
  ('AACAACAACTAATATGCACACATTTAAAAACAAAAT [CACACA_site2440]', 'PfAP2-I AP2 domain 3 (GST-tagged)', 'N'),
  ('TTTTAAGGTGTGAAGGTGCAAAAAGGTAAATAGGAA', 'PfAP2-I AP2 domain 3 (GST-tagged)', 'Y');

Reported gcPBM binding intensity (ln) reaches at least 10 for ATTTTAAAAAGGATAGTGCAAATGTTAAAATAGGAC ?
Y

Reported gcPBM binding intensity (ln) reaches at least 10 for GCCCCCAAATTATGTGTGCACTTTATATTCCTGAGA [GTGCAC_site9474] ?
Y

Reported gcPBM binding intensity (ln) reaches at least 10 for TTTTTTTTTAAGCAAAGGAAATCAAAATAAAAATAT [CACACA_negctrl_site719] ?
N

----------
System: PfAP2-I AP2 domain 3 (GST-tagged)
Experiment: gcPBM binding intensity (ln(normalized median fluorescence intensity)); higher = stronger DNA binding
Whole data set: some 25,000 sequences, median “ln(normalized median fluorescence intensity)” near 7.9, cut for the highest 2% near 11. The sample holds the highest values, similar sequences and a random draw of the others, so the mix is not that of the screen.
Form field: gcPBM binding intensity (ln) (one value per entry).
Lab note: record just the number, no unit beside it.

Worked examples follow.
INSERT INTO assay_data (item_sequence, experimental_target, number) VALUES
  ('GAAATTACTTTATAAACACACATTTATTTTATTTTA [CACACA_site7007]', 'PfAP2-I AP2 domain 3 (GST-tagged)', 7.95),
  ('ATAATTATTAATATAGTGCATTGGCATAATAATATA [GTGCAC_site9810]', 'PfAP2-I AP2 domain 3 (GST-tagged)', 9.89),
  ('AAATCAAACTTTGGTGTGCACAAATATATACATATA [GTGCAC_site9986]', 'PfAP2-I AP2 domain 3 (GST-tagged)', 10.5),
  ('CACCCTTTACACAAGGTGCATACTTTATTATATTTT [GTGCAC_site9778]', 'PfAP2-I AP2 domain 3 (GST-tagged)', 9.3);

Supply gcPBM binding intensity (ln) value. Item: TATAAATTAAAATCAGTGCATATTTTGAAAAACCTC
9.19

----------
Form field: gcPBM binding intensity (ln) (one value per entry).
Tested on: PfAP2-I AP2 domain 3 (GST-tagged)
Experiment: gcPBM binding intensity (ln(normalized median fluorescence intensity)); higher = stronger DNA binding
Over roughly 25,000 sequences, “ln(normalized median fluorescence intensity)” has its median near 7.9; the highest 2% begin near 11. For the sample, the highest values were picked, then their nearest neighbours and some sequences at random.

Worked examples follow.
INSERT INTO results (item_sequence, measurement_type, result) VALUES
  ('ATATTTTTTACTATTACACACAAGGGATTATTATTT [CACACA_site3915]', 'gcPBM binding intensity (ln)', 7.99),
  ('CATCAAGTGAATTGTTGTACTTTACATTGTTTTTAT [XGTACX_site7261]', 'gcPBM binding intensity (ln)', 7.89);

Supply gcPBM binding intensity (ln) value. Item: ATATACATTCTATATACATGCATACTTCATTTTGTG [TGCATGCA_site966]
8.03

Supply gcPBM binding intensity (ln) value. Item: ACAAGACAGATATATACACACATACATACATACATA [CACACA_site7472]
8.12

Supply gcPBM binding intensity (ln) value. Item: GGTTAAAAAAAGCATACACACTATCCTCTTTGCTCT [CACACA_site7246]
7.9

----------
Tested on: PfAP2-I AP2 domain 3 (GST-tagged)
Test: gcPBM binding intensity (ln(normalized median fluorescence intensity)); higher = stronger DNA binding
Over roughly 25,000 sequences, “ln(normalized median fluorescence intensity)” has its median near 7.9; the highest 2% begin near 11. The entries come from a sample that favours the highest values as a whole.
Assign class by gcPBM binding intensity (ln): not lower than 10 means 1 (yes); lower than 10 means 0 (no).

INSERT INTO measurements (item_sequence, label) VALUES
  ('CAATATTATTATATTTGTACACATGCGTATTTTTTA [XGTACX_site4154]', '0 (no)');

Reported gcPBM binding intensity (ln) reaches at least 10 for TTTAGTGAGTTTGTTGTGCACTGAAAAAATTACAAT ?
1 (yes)

Reported gcPBM binding intensity (ln) reaches at least 10 for ATTTTTTTATTTTGTGCACACACATAAAAATATATA [CACACA_site762] ?
1 (yes)

Reported gcPBM binding intensity (ln) reaches at least 10 for TAAAATAAAAATATAGTGCACAGATTTTGATATTTT [GTGCAC_site9696] ?
1 (yes)

Reported gcPBM binding intensity (ln) reaches at least 10 for TTTCCAATTAGTTTTGCATGTTGAAAAAATGTTGGA [TGCATGCA_site1035] ?
0 (no)

----------
Tested on: PfAP2-I AP2 domain 3 (GST-tagged)
Assay: gcPBM binding intensity (ln(normalized median fluorescence intensity)); higher = stronger DNA binding
The full ranking holds about 25,000 sequences; the median of “ln(normalized median fluorescence intensity)” is about 7.9, and the highest 2% start at about 11. What follows is part of a selection rich in the highest values, with near analogues and random picks from the rest.
measurement.type: gcPBM binding intensity (ln)

INSERT INTO assay_data (item_sequence, experimental_target, result) VALUES
  ('CGTTATATCAAAGGAGTGCATTATGAATACGTTTTA [GTGCAC_site9837]', 'PfAP2-I AP2 domain 3 (GST-tagged)', 11.4),
  ('GTGTTAAATTTTTGAACATGCAAGTTTTATTATTGA [TGCATGCA_site478]', 'PfAP2-I AP2 domain 3 (GST-tagged)', 7.58);

Supply gcPBM binding intensity (ln) value. Item: TTATATGCATAAAAACGTACAAAAATGTATTCATGT [XGTACX_site2215]
8.06

Supply gcPBM binding intensity (ln) value. Item: ATAGTTACACAATGGTGTACAAGTCAATATATTTCT [XGTACX_site4614]
7.95

Supply gcPBM binding intensity (ln) value. Item: TATATATATATATGTGCACACATAAAGATATTATTT [CACACA_site3734]
10.2

Supply gcPBM binding intensity (ln) value. Item: TTGTTTTTGTTCTTGGGTACTTAAATTATAAATGAT [XGTACX_site113]
8.07

FYI, the data here is from the supplement of paper PMC11417369.
